Molecular target: T1, IRF4 DBD T95R (Homo sapiens, UniProt Q15306 20-132, T95R)
T1 sequence: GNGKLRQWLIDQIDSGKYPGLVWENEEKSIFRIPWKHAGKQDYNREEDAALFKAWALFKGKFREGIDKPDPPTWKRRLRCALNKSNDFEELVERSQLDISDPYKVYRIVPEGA
Assay: SPR two-state kinetic; FP: PBS + 0.05% Tween20, 5 nM DNA, 1 h, room temperature; SPR: Biacore S200, SA chip, protein 0.1-4500 nM, running buffer not given in material; errors are SD
Settings: protein: recombinant; tags: N-terminal His8-linker-His8-TEV, cleaved; label: 3' biotin; hairpin, TTTT loop
Parameter: Kd (nM)

Binder | Units symbol | Reported
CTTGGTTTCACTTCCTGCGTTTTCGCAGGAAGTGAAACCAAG (structured_DNA) [IRE hairpin (biotin)] | nM | 481
